Measured values drawn from patent US9969742B2 for this set.

ASSAY SYSTEM: PDE1B (Homo sapiens)
Construct: purchased Reaction Biology Corporation, Malvern, Pa
Sequence (Q01064 whole entry): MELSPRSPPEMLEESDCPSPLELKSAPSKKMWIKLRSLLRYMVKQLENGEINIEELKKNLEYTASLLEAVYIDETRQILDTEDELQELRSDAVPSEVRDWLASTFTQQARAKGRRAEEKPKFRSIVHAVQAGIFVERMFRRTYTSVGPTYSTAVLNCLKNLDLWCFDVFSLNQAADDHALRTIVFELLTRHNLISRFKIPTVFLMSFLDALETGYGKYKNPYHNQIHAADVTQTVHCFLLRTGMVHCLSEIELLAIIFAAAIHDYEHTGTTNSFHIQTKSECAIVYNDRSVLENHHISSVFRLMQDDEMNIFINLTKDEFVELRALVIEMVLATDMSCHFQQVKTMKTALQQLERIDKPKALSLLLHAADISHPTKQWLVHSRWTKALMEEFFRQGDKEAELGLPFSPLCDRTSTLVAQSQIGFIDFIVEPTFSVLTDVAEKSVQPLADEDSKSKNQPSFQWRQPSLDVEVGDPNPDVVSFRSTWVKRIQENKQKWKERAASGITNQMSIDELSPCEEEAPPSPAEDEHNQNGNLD
METHOD SUMMARY: Phosphodiesterase enzyme screening assay, PDE1B
Assay type: biochemical
TEST CONTEXT: Table 1; ratio of IC50 values; value greater than 1 indicates greater selectivity for PDE9A2
ASSAY ENDPOINT: PDE1B selectivity (versus PDE9A2)

molecule="CC1CN(C(=O)c2ccccc2F)CC1c1nn2c(C3CCOCC3)ncc2c(=O)[nH]1 (single isomer, unassigned; (-))" assay_endpoint="PDE1B selectivity (versus PDE9A2)" meas_value=7
molecule="CC1CN(Cc2cc(F)cc(F)c2)CC1c1nn2c(C3CCOCC3)ncc2c(=O)[nH]1 (single isomer, unassigned; (+))" assay_endpoint="PDE1B selectivity (versus PDE9A2)" meas_value=1043
molecule="COc1ccccc1CN1CC(C)C(c2nn3c(C4CCOCC4)ncc3c(=O)[nH]2)C1 (single isomer, unassigned; (+))" assay_endpoint="PDE1B selectivity (versus PDE9A2)" meas_value=230
molecule="CC1CN(Cc2cc(F)ccc2F)CC1c1nn2c(C3CCOCC3)ncc2c(=O)[nH]1 (single isomer, unassigned; (+))" assay_endpoint="PDE1B selectivity (versus PDE9A2)" meas_value=118
molecule="CC1CN(Cc2cccc(C(F)(F)F)c2)CC1c1nn2c(C3CCOCC3)ncc2c(=O)[nH]1 (single isomer, unassigned; (+))" assay_endpoint="PDE1B selectivity (versus PDE9A2)" meas_value=86
molecule="CC1CN(C(=O)c2ccc(F)cc2)CC1c1nn2c(C3CCOCC3)ncc2c(=O)[nH]1 (single isomer, unassigned; (-)) [(−)-2-((3,4-trans)-1-(4-fluorobenzoyl)-4-methylpyrrolidin-3-]" assay_endpoint="PDE1B selectivity (versus PDE9A2)" meas_value=23
